Target: MYLK2 (human) (UniProt Q9H1R3)
Sequence (Q9H1R3 whole entry, looked up): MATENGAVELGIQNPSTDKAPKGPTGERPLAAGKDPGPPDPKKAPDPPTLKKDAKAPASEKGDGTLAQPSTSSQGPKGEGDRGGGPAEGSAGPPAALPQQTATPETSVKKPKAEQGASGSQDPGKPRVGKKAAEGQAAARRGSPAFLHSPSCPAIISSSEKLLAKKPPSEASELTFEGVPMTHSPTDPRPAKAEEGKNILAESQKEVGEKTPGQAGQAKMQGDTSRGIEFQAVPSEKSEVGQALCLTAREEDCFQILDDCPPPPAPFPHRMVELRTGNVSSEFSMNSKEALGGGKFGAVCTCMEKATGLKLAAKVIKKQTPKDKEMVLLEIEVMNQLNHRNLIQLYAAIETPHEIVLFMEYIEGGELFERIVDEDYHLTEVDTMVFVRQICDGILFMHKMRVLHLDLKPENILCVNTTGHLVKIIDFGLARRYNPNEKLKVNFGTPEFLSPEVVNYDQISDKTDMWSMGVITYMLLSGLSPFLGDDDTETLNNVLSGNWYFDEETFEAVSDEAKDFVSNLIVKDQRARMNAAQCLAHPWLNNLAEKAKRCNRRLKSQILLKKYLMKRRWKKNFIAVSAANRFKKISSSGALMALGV
Assay: KINOMEscan competition binding
Settings: compound 10.0 µM
Result Type: kinase still bound, per cent of control

Would you please look over these solved cases?
Cc1cc(Nc2cc(N3CCN(C)CC3)nc(Sc3ccc(NC(=O)C4CC4)cc3)n2)[nH]n1
0%
NC(=O)c1ccc(-c2cc(C(N)=O)c(N)c(-c3ccc(S(N)(=O)=O)cc3)c2)cc1
no effect (inactive)
Nc1ncnc2c1c(-c1cccc(O)c1)cn2C1CCNCC1
no effect (inactive)
CCS(=O)(=O)Nc1ccc2c(c1)[C@H](/C(=N/c1ccc(CN3CCCCC3)cc1)c1ccccc1)C(=O)N2
20.7%
O=C(Nc1n[nH]c2nc(-c3cccc(O)c3)ccc12)C1CC1
0%
Cc1ccc(NC(=O)c2cccc(N3CCCCC3)c2)cc1-c1ccc(C(=O)NCC2CC2)cc1
no effect (inactive)
CN(C)c1ccc(-c2cc3ncccc3c(NCCCCN)n2)cc1
no effect (inactive)
Cc1ccc(C(=O)Nc2cccc(C(C)(C)C)c2)cc1-c1ccc(C(=O)NCC2CC2)cc1
no effect (inactive)

// moving on: another record for kinase still bound, per cent of control
kinase still bound, per cent of control reading for c1ccc(-c2n[nH]cc2-c2ccnc3ccccc23)nc1 : no effect (inactive)

###

Molecular target: UniProt P29323
Sequence (P29323 whole entry, looked up): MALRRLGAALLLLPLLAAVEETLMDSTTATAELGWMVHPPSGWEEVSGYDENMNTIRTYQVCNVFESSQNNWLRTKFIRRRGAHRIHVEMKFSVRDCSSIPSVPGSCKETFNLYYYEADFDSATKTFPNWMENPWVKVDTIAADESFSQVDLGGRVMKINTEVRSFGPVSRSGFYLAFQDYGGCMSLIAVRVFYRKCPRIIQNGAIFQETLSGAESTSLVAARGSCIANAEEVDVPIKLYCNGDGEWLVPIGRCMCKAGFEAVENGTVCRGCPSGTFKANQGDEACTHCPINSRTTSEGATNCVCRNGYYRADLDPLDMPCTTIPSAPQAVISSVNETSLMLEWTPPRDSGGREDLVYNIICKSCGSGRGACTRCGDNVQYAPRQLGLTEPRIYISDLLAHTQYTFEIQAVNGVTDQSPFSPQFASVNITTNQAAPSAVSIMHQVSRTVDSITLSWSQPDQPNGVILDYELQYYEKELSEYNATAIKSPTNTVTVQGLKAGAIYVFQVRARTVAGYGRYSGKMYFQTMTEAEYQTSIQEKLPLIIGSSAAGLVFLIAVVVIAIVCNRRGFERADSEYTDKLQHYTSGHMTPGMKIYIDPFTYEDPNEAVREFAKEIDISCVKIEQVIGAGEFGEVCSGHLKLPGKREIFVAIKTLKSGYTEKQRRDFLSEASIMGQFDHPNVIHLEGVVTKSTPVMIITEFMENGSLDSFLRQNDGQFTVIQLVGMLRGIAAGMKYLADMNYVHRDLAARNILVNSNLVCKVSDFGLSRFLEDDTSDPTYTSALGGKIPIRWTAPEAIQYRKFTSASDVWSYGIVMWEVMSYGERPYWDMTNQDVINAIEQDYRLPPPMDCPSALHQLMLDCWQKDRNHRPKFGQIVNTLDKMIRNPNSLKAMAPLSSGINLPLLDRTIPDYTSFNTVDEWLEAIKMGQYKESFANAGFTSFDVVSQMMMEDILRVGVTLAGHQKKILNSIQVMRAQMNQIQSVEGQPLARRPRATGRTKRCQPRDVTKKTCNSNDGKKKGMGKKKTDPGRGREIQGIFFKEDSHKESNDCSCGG
Experiment: KINOMEscan competition binding
Details: compound 10.0 µM
Result Type: kinase still bound, per cent of control

Would you please look over these solved cases?
O=C(Nc1n[nH]c2nc(-c3cccc(O)c3)ccc12)C1CC1
no effect (inactive)
NC(=O)Nc1sc(-c2ccc(F)cc2)cc1C(N)=O
no effect (inactive)
Cc1ccc(NC(=O)c2cccc(N3CCCCC3)c2)cc1-c1ccc(C(=O)NCC2CC2)cc1
no effect (inactive)
CC(=O)c1c(-c2ccncc2)[nH]c(-c2ccncc2)c1C
no effect (inactive)
O=C1Nc2ccccc2/C1=C/c1ccc[nH]1
no effect (inactive)

kinase still bound, per cent of control reading for c1ccc(-c2n[nH]cc2-c2ccnc3ccccc23)nc1 : no effect (inactive)

kinase still bound, per cent of control reading for NC(=O)c1ccc(-c2cc(C(N)=O)c(N)c(-c3ccc(S(N)(=O)=O)cc3)c2)cc1 : no effect (inactive)

kinase still bound, per cent of control reading for Nc1ncnc2c1c(-c1cccc(O)c1)cn2C1CCNCC1 : 0%

kinase still bound, per cent of control reading for N#Cc1ccc(-c2cnc3[nH]cc(NC(=O)c4cccnc4)c3c2)cc1 : no effect (inactive)

kinase still bound, per cent of control reading for Cc1ccc(O)cc1Nc1ccnc(Nc2cccc(C(N)=O)c2)n1 : 0%

kinase still bound, per cent of control reading for NC(=O)c1ccc(Nc2cc(-c3ccc(F)cc3)[nH]n2)cc1 : no effect (inactive)

kinase still bound, per cent of control reading for CN(C)c1ccc(-c2cc3ncccc3c(NCCCCN)n2)cc1 : no effect (inactive)

kinase still bound, per cent of control reading for CCS(=O)(=O)Nc1ccc2c(c1)[C@H](/C(=N/c1ccc(CN3CCCCC3)cc1)c1ccccc1)C(=O)N2 : 0.15%

###

Target: EPHB1 (human)
Assay: KINOMEscan competition binding
Conditions: compound 10.0 µM
Result Type: kinase still bound, per cent of control

Would you please look over these solved cases?
c1ccc(-c2n[nH]cc2-c2ccnc3ccccc23)nc1
no effect (inactive)
NC(=O)c1ccc(-c2cc(C(N)=O)c(N)c(-c3ccc(S(N)(=O)=O)cc3)c2)cc1
no effect (inactive)
N#Cc1ccc(-c2cnc3[nH]cc(NC(=O)c4cccnc4)c3c2)cc1
no effect (inactive)
NC(=O)c1ccc(Nc2cc(-c3ccc(F)cc3)[nH]n2)cc1
no effect (inactive)
NC(=O)Nc1sc(-c2ccc(F)cc2)cc1C(N)=O
0%
CC(=O)c1c(-c2ccncc2)[nH]c(-c2ccncc2)c1C
no effect (inactive)

kinase still bound, per cent of control reading for Cc1ccc(O)cc1Nc1ccnc(Nc2cccc(C(N)=O)c2)n1 : 0%

kinase still bound, per cent of control reading for Cc1ccc(NC(=O)c2cccc(N3CCCCC3)c2)cc1-c1ccc(C(=O)NCC2CC2)cc1 : no effect (inactive)

kinase still bound, per cent of control reading for CCS(=O)(=O)Nc1ccc2c(c1)[C@H](/C(=N/c1ccc(CN3CCCCC3)cc1)c1ccccc1)C(=O)N2 : 0%

###

Target: CAMKK1 (human) (UniProt Q8N5S9)
Sequence (Q8N5S9 whole entry, looked up): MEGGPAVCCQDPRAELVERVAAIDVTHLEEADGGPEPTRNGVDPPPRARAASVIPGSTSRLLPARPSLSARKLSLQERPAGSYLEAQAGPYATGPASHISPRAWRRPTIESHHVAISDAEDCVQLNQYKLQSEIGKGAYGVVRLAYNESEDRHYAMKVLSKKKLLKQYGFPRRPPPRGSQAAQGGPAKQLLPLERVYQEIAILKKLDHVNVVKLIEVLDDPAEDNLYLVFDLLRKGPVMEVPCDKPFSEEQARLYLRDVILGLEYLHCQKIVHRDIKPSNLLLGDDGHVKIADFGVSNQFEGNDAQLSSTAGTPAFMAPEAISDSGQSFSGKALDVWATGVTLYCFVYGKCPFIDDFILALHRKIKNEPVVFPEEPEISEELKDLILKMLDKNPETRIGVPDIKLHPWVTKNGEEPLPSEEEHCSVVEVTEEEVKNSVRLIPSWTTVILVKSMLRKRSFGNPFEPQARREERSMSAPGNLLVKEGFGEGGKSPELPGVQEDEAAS
Test: KINOMEscan competition binding
Settings: compound 10.0 µM
Result Type: kinase still bound, per cent of control

Cc1ccc(C(=O)Nc2cccc(C(C)(C)C)c2)cc1-c1ccc(C(=O)NCC2CC2)cc1
no effect (inactive)
CCS(=O)(=O)Nc1ccc2c(c1)[C@H](/C(=N/c1ccc(CN3CCCCC3)cc1)c1ccccc1)C(=O)N2
0.1%
Nc1ncnc2c1c(-c1cccc(O)c1)cn2C1CCNCC1
no effect (inactive)
Cc1ccc(O)cc1Nc1ccnc(Nc2cccc(C(N)=O)c2)n1
no effect (inactive)
CC(=O)c1c(-c2ccncc2)[nH]c(-c2ccncc2)c1C
no effect (inactive)
c1ccc(-c2n[nH]cc2-c2ccnc3ccccc23)nc1
no effect (inactive)
Cc1cc(Nc2cc(N3CCN(C)CC3)nc(Sc3ccc(NC(=O)C4CC4)cc3)n2)[nH]n1
no effect (inactive)
NC(=O)c1ccc(-c2cc(C(N)=O)c(N)c(-c3ccc(S(N)(=O)=O)cc3)c2)cc1
no effect (inactive)

// moving on: another record for kinase still bound, per cent of control
kinase still bound, per cent of control reading for Cc1ccc(NC(=O)c2cccc(N3CCCCC3)c2)cc1-c1ccc(C(=O)NCC2CC2)cc1 : no effect (inactive)

###

Biological target: SIK2 (human) (UniProt Q9H0K1)
Sequence (Q9H0K1 whole entry, looked up): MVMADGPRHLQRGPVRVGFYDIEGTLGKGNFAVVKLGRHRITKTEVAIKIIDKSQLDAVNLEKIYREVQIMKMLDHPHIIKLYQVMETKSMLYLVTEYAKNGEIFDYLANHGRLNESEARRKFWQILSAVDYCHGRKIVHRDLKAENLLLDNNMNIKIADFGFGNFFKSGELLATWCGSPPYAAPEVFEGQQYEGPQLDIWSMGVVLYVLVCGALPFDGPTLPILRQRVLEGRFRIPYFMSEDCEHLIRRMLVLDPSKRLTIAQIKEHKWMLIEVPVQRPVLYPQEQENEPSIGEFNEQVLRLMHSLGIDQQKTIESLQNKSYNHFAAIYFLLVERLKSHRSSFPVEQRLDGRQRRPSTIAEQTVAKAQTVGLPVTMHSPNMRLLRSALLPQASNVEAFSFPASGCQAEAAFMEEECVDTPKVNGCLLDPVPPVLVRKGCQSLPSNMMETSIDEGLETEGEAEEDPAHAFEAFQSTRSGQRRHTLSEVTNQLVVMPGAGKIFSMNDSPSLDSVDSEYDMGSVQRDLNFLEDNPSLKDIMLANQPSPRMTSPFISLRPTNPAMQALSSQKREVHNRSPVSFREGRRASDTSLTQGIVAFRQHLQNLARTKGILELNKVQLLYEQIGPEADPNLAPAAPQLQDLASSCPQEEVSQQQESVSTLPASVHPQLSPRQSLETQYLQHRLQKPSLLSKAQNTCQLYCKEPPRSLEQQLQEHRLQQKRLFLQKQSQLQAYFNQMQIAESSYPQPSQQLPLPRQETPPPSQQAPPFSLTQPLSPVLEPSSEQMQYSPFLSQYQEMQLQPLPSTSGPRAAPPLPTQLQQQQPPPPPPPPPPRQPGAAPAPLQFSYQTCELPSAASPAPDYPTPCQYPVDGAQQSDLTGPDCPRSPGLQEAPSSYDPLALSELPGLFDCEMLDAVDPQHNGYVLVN
Experiment: KINOMEscan competition binding
Details: compound 10.0 µM
Result Type: kinase still bound, per cent of control

Would you please look over these solved cases?
c1ccc(-c2n[nH]cc2-c2ccnc3ccccc23)nc1
no effect (inactive)
CCS(=O)(=O)Nc1ccc2c(c1)[C@H](/C(=N/c1ccc(CN3CCCCC3)cc1)c1ccccc1)C(=O)N2
0.8%
O=C1Nc2ccccc2/C1=C/c1ccc[nH]1
no effect (inactive)
NC(=O)c1ccc(-c2cc(C(N)=O)c(N)c(-c3ccc(S(N)(=O)=O)cc3)c2)cc1
no effect (inactive)

// moving on: another record for kinase still bound, per cent of control
The value of kinase still bound, per cent of control recorded for N#Cc1ccc(-c2cnc3[nH]cc(NC(=O)c4cccnc4)c3c2)cc1 when tested on SIK2 (human) (UniProt Q9H0K1) reads no effect (inactive)

###

Biological target: ADCK3 (human)
Assay: KINOMEscan competition binding
Details: compound 10.0 µM
Result Type: kinase still bound, per cent of control

N#Cc1ccc(-c2cnc3[nH]cc(NC(=O)c4cccnc4)c3c2)cc1
no effect (inactive)
NC(=O)Nc1sc(-c2ccc(F)cc2)cc1C(N)=O
no effect (inactive)
Cc1ccc(NC(=O)c2cccc(N3CCCCC3)c2)cc1-c1ccc(C(=O)NCC2CC2)cc1
no effect (inactive)
CCS(=O)(=O)Nc1ccc2c(c1)[C@H](/C(=N/c1ccc(CN3CCCCC3)cc1)c1ccccc1)C(=O)N2
27.2%

The value of kinase still bound, per cent of control recorded for NC(=O)c1ccc(Nc2cc(-c3ccc(F)cc3)[nH]n2)cc1 when tested on ADCK3 (human) reads no effect (inactive)

###

Molecular target: PAK2 (human)
Result Type: Kd (µM)
Report only the number, with the unit µM understood.

The value of Kd recorded for CCS(=O)(=O)Nc1ccc2c(c1)[C@H](/C(=N/c1ccc(CN3CCCCC3)cc1)c1ccccc1)C(=O)N2 when tested on PAK2 (human) reads 14

###

Molecular target: STK17A (human)
Assay: KINOMEscan competition binding
Details: compound 10.0 µM
Result Type: kinase still bound, per cent of control

Cc1ccc(C(=O)Nc2cccc(C(C)(C)C)c2)cc1-c1ccc(C(=O)NCC2CC2)cc1
no effect (inactive)
Nc1ncnc2c1c(-c1cccc(O)c1)cn2C1CCNCC1
no effect (inactive)
CCS(=O)(=O)Nc1ccc2c(c1)[C@H](/C(=N/c1ccc(CN3CCCCC3)cc1)c1ccccc1)C(=O)N2
0%
c1ccc(-c2n[nH]cc2-c2ccnc3ccccc23)nc1
no effect (inactive)

###

Target: LTK (human) (UniProt P29376)
Sequence (P29376 whole entry, looked up): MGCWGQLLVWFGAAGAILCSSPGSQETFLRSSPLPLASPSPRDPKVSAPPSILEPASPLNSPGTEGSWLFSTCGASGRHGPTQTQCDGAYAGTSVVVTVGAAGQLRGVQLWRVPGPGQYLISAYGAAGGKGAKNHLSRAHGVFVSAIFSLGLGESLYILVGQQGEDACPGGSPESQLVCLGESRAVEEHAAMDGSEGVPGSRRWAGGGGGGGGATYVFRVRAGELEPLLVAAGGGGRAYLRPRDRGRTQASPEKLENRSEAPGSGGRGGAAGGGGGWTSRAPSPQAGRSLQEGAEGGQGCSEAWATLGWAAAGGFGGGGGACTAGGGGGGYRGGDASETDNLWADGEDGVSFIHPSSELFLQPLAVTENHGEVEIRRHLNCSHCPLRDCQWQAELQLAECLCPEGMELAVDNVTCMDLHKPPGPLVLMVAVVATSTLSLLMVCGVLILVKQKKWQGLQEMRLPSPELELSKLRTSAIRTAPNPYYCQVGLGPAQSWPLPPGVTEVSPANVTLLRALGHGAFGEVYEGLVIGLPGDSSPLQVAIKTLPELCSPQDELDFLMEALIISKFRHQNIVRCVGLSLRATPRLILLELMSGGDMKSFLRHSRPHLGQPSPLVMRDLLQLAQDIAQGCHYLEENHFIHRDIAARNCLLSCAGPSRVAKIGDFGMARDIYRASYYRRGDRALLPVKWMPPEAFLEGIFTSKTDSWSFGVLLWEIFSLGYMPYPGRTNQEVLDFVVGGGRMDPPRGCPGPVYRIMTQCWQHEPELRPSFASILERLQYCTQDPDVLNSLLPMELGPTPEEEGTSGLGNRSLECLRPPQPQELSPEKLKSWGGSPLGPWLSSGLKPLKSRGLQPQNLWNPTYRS
Result Type: Kd (nM)
Report only the number, with the unit nM understood.

The value of Kd recorded for CCS(=O)(=O)Nc1ccc2c(c1)[C@H](/C(=N/c1ccc(CN3CCCCC3)cc1)c1ccccc1)C(=O)N2 when tested on LTK (human) (UniProt P29376) reads 52

###

Target: PAK3 (human) (UniProt O75914)
Sequence (O75914 whole entry, looked up): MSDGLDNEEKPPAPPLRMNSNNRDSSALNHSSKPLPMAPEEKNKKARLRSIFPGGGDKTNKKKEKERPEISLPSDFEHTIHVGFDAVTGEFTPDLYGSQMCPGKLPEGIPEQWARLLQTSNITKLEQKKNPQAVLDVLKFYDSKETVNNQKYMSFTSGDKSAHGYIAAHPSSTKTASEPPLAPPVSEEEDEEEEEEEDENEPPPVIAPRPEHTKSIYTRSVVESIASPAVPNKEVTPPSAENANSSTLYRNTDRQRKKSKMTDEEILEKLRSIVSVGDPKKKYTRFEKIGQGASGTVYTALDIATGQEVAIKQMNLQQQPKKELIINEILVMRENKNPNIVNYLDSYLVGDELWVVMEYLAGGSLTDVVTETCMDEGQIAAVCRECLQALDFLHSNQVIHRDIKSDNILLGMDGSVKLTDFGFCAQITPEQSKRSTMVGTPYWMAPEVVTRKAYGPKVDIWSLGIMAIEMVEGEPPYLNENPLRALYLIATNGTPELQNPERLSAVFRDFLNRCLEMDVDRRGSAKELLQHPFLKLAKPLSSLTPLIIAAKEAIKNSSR
Test: KINOMEscan competition binding
Conditions: compound 10.0 µM
Result Type: kinase still bound, per cent of control

Cc1ccc(O)cc1Nc1ccnc(Nc2cccc(C(N)=O)c2)n1
no effect (inactive)
NC(=O)c1ccc(-c2cc(C(N)=O)c(N)c(-c3ccc(S(N)(=O)=O)cc3)c2)cc1
no effect (inactive)
CCS(=O)(=O)Nc1ccc2c(c1)[C@H](/C(=N/c1ccc(CN3CCCCC3)cc1)c1ccccc1)C(=O)N2
0%
CC(=O)c1c(-c2ccncc2)[nH]c(-c2ccncc2)c1C
no effect (inactive)

// moving on: another record for kinase still bound, per cent of control
kinase still bound, per cent of control reading for O=C(Nc1n[nH]c2nc(-c3cccc(O)c3)ccc12)C1CC1 : no effect (inactive)
